tested on: UACC-62 melanoma; experiment: NCI-60 one-dose screen, 48 h; settings: 10 µM unless noted
Compounds without any hit were thinned out: in the full panel of roughly 83,000, 20% have a hit. Activity calls are given as the source filed them. Rule for the calls: active = growth percent below 10; inactive = the rest.
Outcomes: 1 = active, 0 = inactive

| COMPOUND | LABEL |
| --- | --- |
| COc1cc2c(cc1-c1c(C)noc1C)ncc1nc(C3CCCC3)n([C@H](C)COC(F)F)c12 | 0 |
| N#Cc1c(-c2ccc(Cl)cc2)nc(N=Nc2c(O)[nH]c3ccc(Cl)cc23)nc1N1CCOCC1 | 0 |
| CN(CCCCCl)P(=O)(OCc1ccc([N+](=O)[O-])o1)C(F)(F)c1ccc(CC(=O)NC[C@@H](O)/C=C\[C@@H](O)[C@H](CO)Cc2ccccc2)cc1 (stereo partly drawn) | 0 |
| NNCCc1ccc(NC(=O)CCCc2ccc(/C=C/C(=O)NO)cc2)cc1 | 0 |
| N#CCCN=Nc1c(O)[nH]c2ccc([N+](=O)[O-])cc12 | 0 |
| FC(F)(F)Oc1ccc2nc3nc4ccc[nH]c4cc3c2c1 | 0 |
| CC[C@H]1OC(=O)[C@H](C)[C@@H](O[C@H]2C[C@@](C)(OC)[C@@H](O)[C@H](C)O2)[C@H](C)[C@@H](O[C@@H]2O[C@H](C)C[C@H](N(C)C)[C@H]2O)[C@](C)(O)C[C@H](C)CN(C)[C@H](C)[C@@H](O)[C@]1(C)O | 0 |
| CCCOc1ccc2nc(NC(=O)OC)[nH]c2c1 | 0 |
| c1ccc(-c2c(-c3ccccc3)[n+](Cc3ccc4ccccc4c3)c(-c3ccc(-c4nc5ccccc5s4)cc3)n2Cc2ccc3ccccc3c2)cc1 | 1 |
| CN(Cc1cc(Cl)cc(Cl)c1O)Cc1cc(Cl)cc(Cl)c1O | 0 |
| N#Cc1cnn(-c2nc3c(Cl)cccc3s2)c1N | 0 |
| Clc1ccc2c(NCCCCNc3nc(N4CCOCC4)nc4ccccc34)ccnc2c1 | 0 |
| Fc1ccc2[nH]cc(SSc3c[nH]c4ccc(F)cc34)c2c1 | 0 |
| COc1ccc(C2C(C#N)=C(N)Oc3n[nH]c(-c4cccs4)c32)cc1I (stereo not drawn) | 0 |
| C=C(C)C1CC(O)C2(C)CCCC3C2C1CC(C)C3(C)CC/C(C)=C/C(O)C1CCC(=O)c2c(OC)cc(OC)cc21 (stereo not drawn) | 0 |
| O=C(COc1cccc(/C=C2\COc3ccc(Cl)cc3C2=O)c1)c1ccc(Cl)cc1 | 0 |
| COc1ccc(S(=O)(=O)N2CCCCC2)cc1NC(=O)c1[nH]c(C)c2c1CCCCC2=O | 0 |
| COc1ccc2c(c1)O/C(=C\c1cccc(OCC(=O)Nc3nc4c(s3)CCCC4)c1)C2=O | 0 |
| O=C(CCN1C(=O)/C(=C/c2ccc(Cl)cc2)SC1=S)NCCCN1CCOCC1 | 0 |
| Oc1ccc(N=Cc2ccccc2O)cc1 | 0 |
| COc1ccc(S(=O)(=O)N2CC3(COC3)C2)cc1NC(=O)c1[nH]c(C)c2c1CCCCC2=O | 0 |
| CCOC(=O)c1sc2nc(-c3cccc(OC)c3)nc(N3CCOCC3)c2c1C | 0 |
| N#Cc1nnn(-c2ccc(S(N)(=O)=O)cc2)c1NC(=O)CCl | 0 |
| COc1ccccc1NS(=O)(=O)c1ccc2oc(SC(C)C)nc2c1 | 0 |
| COc1ccc(Nc2cc(C)nc(N3CCN(c4ccnc5cc(Cl)ccc45)CC3)n2)cc1 | 0 |
| N#CN1CCC[C@H]1C(=O)N1CCc2c(-c3[nH]nc4ncccc34)cccc21 | 1 |
| CC(=O)Nc1ccc(S(=O)(=O)Nc2cccc(-c3nc(-c4ccc(NC(=O)c5cccnc5)cc4Cl)no3)c2)cc1 | 0 |
| c1csc(C2=NN3C(C2)c2ccccc2OC3c2ccncc2)c1 (stereo not drawn) | 0 |
| C#CCOc1ccc2ncnc(N3CCC(NC(=O)CCl)CC3)c2c1 | 0 |
| O=C1/C(=C/c2ccc(Cl)cc2)SC(=S)N1CCc1ccc(O)cc1 | 0 |
| O=C1OC(c2ccccc2)C(O)=C1c1ccccc1 (stereo not drawn) | 0 |
| Cc1ccc2c(C(C[N+](=O)[O-])c3ccccc3)c(-c3ccccc3)[nH]c2c1 (stereo not drawn) | 0 |
| COc1ccc(/C=C/c2nc3ccccc3nc2/C=C/c2ccc(OC)cc2)cc1 | 0 |
| COc1ccc(-c2nc3ccc(-c4nc5ccc(N6CCN(c7ccncc7)CC6)cc5[nH]4)cc3[nH]2)cc1OC | 0 |
| COc1cc2nnc3c4cccnc4[nH]c3c2cc1OC | 0 |
| COc1ccc(S(=O)(=O)N2CCN(C)CC2)cc1NC(=O)c1[nH]c(C)c2c1CCCCC2=O | 0 |
| CCN(CC)c1ccc(-c2cc(-c3cc(OC)c(OC)c(OC)c3)nc(N3CCOCC3)c2C#N)cc1 | 1 |
| COc1ccc(/C=C2\Oc3cc(OCCCCN4CCCC4)ccc3C2=O)cc1 | 0 |

Where do the numbers come from? From PubChem BioAssay (NCI).
